- system.under.test: Nuclear receptor coactivator 3 (Homo sapiens)
- assay.details: SRC3 (NCOA3) coactivator inhibitors, late-stage follow-up, cell-based, HEK293, GAL4-SRC3 luciferase, powder samples (AID 651788)
- condition.notes: HEK293 GAL4-SRC3 luciferase reporter, luminescence
Provide the reported IC50 of each item.

Task: Request the reported IC50 associated with CN1C(=O)C2(C(C#N)=C(N)N(c3cc(Cl)cc(Cl)c3)C3=C2C(=O)CC(C)(C)C3)c2ccccc21 (stereo not drawn)
Output: 4.44 µM

Task: Proceed to OCCN1CCN(C(=S)c2ccc(-c3ccccc3)cc2)CC1
Output: 4.97 µM

Task: Do the same for CCCNC(=O)c1nnsc1S(=O)(=O)c1ccc(Cl)cc1 please
Output: 3.96 µM

Source of measurements: PubChem BioAssay AID651788
